- SYSTEM_UNDER_TEST: DRB1*0101 (DR1) (Homo sapiens, UniProt P01903+P01911, A100R/D57E/F55L/F60I/F76Y/I96L/L162R/M171V/P40L/Q125E/R42F/V115G/Y59C)
- ASSAY_DETAILS: HLA class II peptide binding assay, purified HLA
- CONDITION_INFO: Table XIX, DR supermotif peptides; unit not given

SMILES_DATA | DR1 binding data
CC[C@H](C)[C@H](NC(=O)[C@H](CCC(N)=O)NC(=O)[C@H](CCSC)NC(=O)[C@H](CS)NC(=O)[C@H](Cc1c[nH]c2ccccc12)NC(=O)[C@H](CC(N)=O)NC(=O)[C@H](CC(C)C)NC(=O)[C@@H](N)CC(C)C)C(=O)N[C@@H](C)C(=O)N[C@@H](CCCCN)C(=O)NCC(=O)N[C@@H](CCSC)C(=O)N[C@@H](CO)C(=O)N[C@@H](Cc1ccc(O)cc1)C(=O)N[C@@H](CC(C)C)C(=O)O | 0.8400
CC(C)C[C@H](NC(=O)[C@H](C)NC(=O)[C@H](Cc1ccc(O)cc1)NC(=O)[C@H](CC(N)=O)NC(=O)[C@H](CC(=O)O)NC(=O)[C@H](CCC(=O)O)NC(=O)[C@H](Cc1ccccc1)NC(=O)[C@H](CC(C)C)NC(=O)[C@H](CCC(N)=O)NC(=O)[C@@H](N)[C@@H](C)O)C(=O)N[C@@H](C)C(=O)N[C@H](C(=O)N[C@@H](CC(C)C)C(=O)N[C@@H](CC(=O)O)C(=O)N[C@@H](CC(N)=O)C(=O)O)C(C)C | 0.0530
CC[C@H](C)[C@H](NC(=O)[C@H](CO)NC(=O)[C@H](CCC(=O)O)NC(=O)[C@H](CC(C)C)NC(=O)[C@H](C)NC(=O)[C@H](CCSC)NC(=O)[C@H](Cc1c[nH]c2ccccc12)NC(=O)[C@H](CCCCN)NC(=O)[C@@H](NC(=O)[C@@H]1CCCN1C(=O)[C@@H](NC(=O)[C@@H](N)CCCCN)C(C)C)[C@@H](C)CC)C(=O)N[C@@H](CC(C)C)C(=O)N[C@@H](CCCNC(=N)N)C(=O)N[C@@H](CCCNC(=N)N)C(=O)O | 2.2000
CC(C)C[C@H](NC(=O)[C@H](CO)NC(=O)[C@H](C)NC(=O)[C@H](CC(N)=O)NC(=O)[C@@H](NC(=O)[C@@H]1CCCN1C(=O)[C@H](CC(C)C)NC(=O)[C@H](Cc1ccc(O)cc1)NC(=O)[C@@H](NC(=O)[C@H](CC(C)C)NC(=O)[C@H](CCC(=O)O)NC(=O)[C@H](CC(C)C)NC(=O)[C@@H](N)CC(N)=O)[C@@H](C)O)[C@@H](C)O)C(=O)N[C@@H](CO)C(=O)N[C@@H](Cc1ccccc1)C(=O)O | 0.4700

* * *

Record: IC50 reported on UniProt:P04439.
Where a SMILES comes first, the peptide text is derived from it. [ ]: non-standard residue; d: D form. Abu = CC[C@H](N)C(=O)O

MOLECULE | IC50 (nM)
CC[C@H](NC(=O)CNC(=O)CNC(=O)[C@H](C)NC(=O)[C@H](CC)NC(=O)[C@@H](NC(=O)[C@@H](N)[C@@H](C)O)C(C)C)C(=O)N[C@@H](C)C(=O)N[C@@H](CCCCN)C(=O)O [Her2/neu.218.B3B7K9] (H-TV[Abu]AGG[Abu]AK-OH) | 24
CC[C@H](C)[C@H](NC(=O)[C@H](CCC(=O)O)NC(=O)[C@@H](NC(=O)[C@H](CC(C)C)NC(=O)[C@H](CO)NC(=O)[C@H](CCCNC(=N)N)NC(=O)[C@H](CC(C)C)NC(=O)[C@@H](N)CCC(N)=O)[C@@H](C)O)C(=O)N[C@@H](CC(C)C)C(=O)N[C@@H](CCCCN)C(=O)O [Her2/neu.141] | 55
CC[C@H](C)[C@H](N)C(=O)N[C@H](C(=O)N[C@@H](CCCCN)C(=O)NCC(=O)NCC(=O)N[C@H](C(=O)N[C@@H](CC(C)C)C(=O)N[C@H](C(=O)N[C@@H](CCC(N)=O)C(=O)N[C@@H](CCCNC(=N)N)C(=O)O)[C@@H](C)CC)C(C)C)C(C)C [Her2/neu.148.V2] | 275
CC[C@H](C)[C@H](N)C(=O)N[C@H](C(=O)N[C@@H](Cc1c[nH]c2ccccc12)C(=O)N[C@@H](CCCCN)C(=O)N[C@@H](CC(=O)O)C(=O)N[C@H](C(=O)N[C@@H](Cc1ccccc1)C(=O)N[C@@H](Cc1c[nH]cn1)C(=O)N[C@@H](CCCNC(=N)N)C(=O)O)[C@@H](C)CC)C(C)C [Her2/neu.167.V2R9] | 143
CC(C)C[C@H](NC(=O)[C@H](CCC(N)=O)NC(=O)[C@H](CC(=O)O)NC(=O)[C@H](Cc1c[nH]c2ccccc12)NC(=O)[C@@H]1CCCN1C(=O)[C@@H](NC(=O)[C@@H](NC(=O)[C@@H](N)Cc1c[nH]cn1)[C@@H](C)O)C(C)C)C(=O)N[C@@H](Cc1ccccc1)C(=O)N[C@@H](CCCNC(=N)N)C(=O)O [Her2/neu.478] | 3140
CC[C@H](NC(=O)[C@H](CC(N)=O)NC(=O)[C@@H](NC(=O)[C@@H](N)CC)C(C)C)C(=O)N[C@@H](CO)C(=O)N[C@@H](CCC(N)=O)C(=O)N[C@@H](Cc1ccccc1)C(=O)N[C@@H](CC(C)C)C(=O)N[C@@H](CCCNC(=N)N)C(=O)O [Her2/neu.528.B1B4] (H-[Abu]VN[Abu]SQFLR-OH) | 177
CC[C@H](C)[C@H](N)C(=O)N[C@H](C(=O)N[C@@H](CCCCN)C(=O)NCC(=O)NCC(=O)N[C@H](C(=O)N[C@@H](CC(C)C)C(=O)N[C@H](C(=O)N[C@@H](CCC(N)=O)C(=O)N[C@@H](CCCCN)C(=O)O)[C@@H](C)CC)C(C)C)C(C)C [Her2/neu.148.V2K10] | 26
CC[C@H](C)[C@H](N)C(=O)N[C@@H](CO)C(=O)N[C@@H](Cc1c[nH]c2ccccc12)C(=O)N[C@@H](CC(C)C)C(=O)NCC(=O)N[C@@H](CC(C)C)C(=O)N[C@@H](CCCNC(=N)N)C(=O)N[C@@H](CO)C(=O)N[C@@H](CC(C)C)C(=O)N[C@@H](CCCNC(=N)N)C(=O)O [Her2/neu.450] | 268
CC[C@H](C)[C@H](N)C(=O)N[C@@H](CC(C)C)C(=O)N[C@@H](CCCCN)C(=O)NCC(=O)NCC(=O)N[C@H](C(=O)N[C@@H](CC(C)C)C(=O)N[C@H](C(=O)N[C@@H](CCC(N)=O)C(=O)N[C@@H](CCCNC(=N)N)C(=O)O)[C@@H](C)CC)C(C)C [Her2/neu.148] | 275
CC[C@H](C)[C@H](NC(=O)[C@H](CC(=O)O)NC(=O)[C@H](CCCCN)NC(=O)[C@H](Cc1c[nH]c2ccccc12)NC(=O)[C@H](CC(C)C)NC(=O)[C@@H](NC(=O)[C@@H](N)[C@@H](C)O)C(C)C)C(=O)N[C@@H](Cc1ccccc1)C(=O)N[C@@H](Cc1c[nH]cn1)C(=O)N[C@@H](CCCNC(=N)N)C(=O)O [Her2/neu.166.V2R10] | 8460
CC[C@H](C)[C@H](N)C(=O)N[C@@H](CC(C)C)C(=O)N[C@@H](Cc1c[nH]c2ccccc12)C(=O)N[C@@H](CCCCN)C(=O)N[C@@H](CC(=O)O)C(=O)N[C@H](C(=O)N[C@@H](Cc1ccccc1)C(=O)N[C@@H](Cc1c[nH]cn1)C(=O)N[C@@H](CCCCN)C(=O)O)[C@@H](C)CC [Her2/neu.167] | 39
CC(C)C[C@H](NC(=O)[C@H](Cc1ccccc1)NC(=O)[C@H](CCC(N)=O)NC(=O)[C@H](CO)NC(=O)[C@H](CS)NC(=O)[C@H](CC(N)=O)NC(=O)[C@@H](NC(=O)[C@@H](N)CS)C(C)C)C(=O)N[C@@H](CCCNC(=N)N)C(=O)O [Her2/neu.528] | 7330
CC[C@H](C)[C@H](N)C(=O)N[C@H](C(=O)N[C@@H](Cc1c[nH]c2ccccc12)C(=O)N[C@@H](CC(C)C)C(=O)NCC(=O)N[C@@H](CC(C)C)C(=O)N[C@@H](CCCNC(=N)N)C(=O)N[C@@H](CO)C(=O)N[C@@H](CC(C)C)C(=O)N[C@@H](CCCNC(=N)N)C(=O)O)C(C)C [Her2/neu.450.V2] | 234
